tested on: Pseudomonas aeruginosa; assay: Antimicrobial activity against colistin resistant Pseudomonas aeruginosa 7197/19 assessed as bacterial growth inhibition incubated for 20 hrs by broth microdilution method; assay type: functional
Positions of bridges follow the written chain, without caps; N, C: chain ends. Non-standard residues stand in square brackets, D forms with d. Residues, ends and D or L forms follow the SMILES beside them. *: point of attachment. dPhe(4-CF3) = N[C@H](Cc1ccc(C(F)(F)F)cc1)C(=O)O; Benzoyl(4-Ph) = O=C(c1ccc(-c2ccccc2)cc1)*; Octanoyl = CCCCCCCC(=O)*; Dab = NCC[C@H](N)C(=O)O
Can you tell me MIC for the items I'm about to list?
Write it as a number; the unit µg/mL goes unstated.

Fill blank: measured MIC of the molecule CC[C@H](C)[C@@H]1NC(=O)[C@@H](CC(C)C)NC(=O)[C@H](CCN)NC(=O)[C@@H](NC(=O)[C@@H](CO)NC(=O)[C@@H](NC(=O)[C@H](CCN)NC(=O)c2ccc(-c3ccccc3)cc2)[C@@H](C)O)CCNC(=O)[C@H](CC(C)C)NC(=O)[C@H](CCN)NC(=O)[C@H](CCN)NC1=O ({Benzoyl(4-Ph)}-[Dab]T[dS][Dab][Dab][dL]I[Dab][Dab]L; lactam 4-C) is ____.
1

Fill blank: measured MIC of the molecule `CCCCCCCC(=O)N[C@@H](CCN)C(=O)N[C@H](C(=O)N[C@@H](CCN)C(=O)N[C@H]1CCNC(=O)[C@H]([C@@H](C)O)NC(=O)[C@H](CCN)NC(=O)[C@H](CCN)NC(=O)[C@H](CC(C)C)NC(=O)[C@@H](Cc2ccc(Br)cc2)NC(=O)[C@H](CCN)NC1=O)[C@@H](C)O` is ____.
0.125

Fill blank: measured MIC of the molecule CCCCCCCC(=O)N[C@@H](CCN)C(=O)N[C@H](C(=O)N[C@@H](CCN)C(=O)N[C@H]1CCNC(=O)[C@H]([C@@H](C)O)NC(=O)[C@H](CCN)NC(=O)[C@H](CCN)NC(=O)[C@H](CC(C)C)NC(=O)[C@@H](Cc2ccc(C(F)(F)F)cc2)NC(=O)[C@H](CCN)NC1=O)[C@@H](C)O (Octanoyl-[Dab]T[Dab][Dab][Dab][dPhe(4-CF3)]L[Dab][Dab]T; lactam 4-C) is ____.
0.25

====

assay: Hemolytic activity in human RBC at 400 ug/ml after 1 hr; type: toxicity, cell-based, Erythrocyte; details: red blood cells (erythrocytes), at 400 µg/mL, read-out: Activity
Positions of bridges follow the written chain, without caps; N, C: chain ends. Non-standard residues stand in square brackets, D forms with d. Residues, ends and D or L forms follow the SMILES beside them. *: point of attachment. dPhe(3,4,5-F3) = N[C@H](Cc1cc(F)c(F)c(F)c1)C(=O)O; d(hhPhe) = N[C@H](CCCc1ccccc1)C(=O)O; Octanoyl = CCCCCCCC(=O)*; Dab = NCC[C@H](N)C(=O)O
measurement-name: hemolysis at 1 h, 400 ug/ml

Fill blank: measured hemolysis at 1 h, 400 ug/ml of the compound CCCCCCCC(=O)N[C@@H](CCN)C(=O)N[C@H](C(=O)N[C@@H](CCN)C(=O)N[C@H]1CCNC(=O)[C@H]([C@@H](C)O)NC(=O)[C@H](CCN)NC(=O)[C@H](CCN)NC(=O)[C@H](CC(C)C)NC(=O)[C@@H](CCCc2ccccc2)NC(=O)[C@H](CCN)NC1=O)[C@@H](C)O (Octanoyl-[Dab]T[Dab][Dab][Dab][d(hhPhe)]L[Dab][Dab]T; lactam 4-C) is ____.
< 10%

Fill blank: measured hemolysis at 1 h, 400 ug/ml of the compound CCCCCCCC(=O)N[C@@H](CCN)C(=O)N[C@H](C(=O)N[C@@H](CCN)C(=O)N[C@H]1CCNC(=O)[C@H]([C@@H](C)O)NC(=O)[C@H](CCN)NC(=O)[C@H](CCN)NC(=O)[C@H](CC(C)C)NC(=O)[C@@H](Cc2cc(F)c(F)c(F)c2)NC(=O)[C@H](CCN)NC1=O)[C@@H](C)O (Octanoyl-[Dab]T[Dab][Dab][Dab][dPhe(3,4,5-F3)]L[Dab][Dab]T; lactam 4-C) is ____.
< 10%

Fill blank: measured hemolysis at 1 h, 400 ug/ml of the compound `CC(=O)N[C@H](Cc1ccc(C(F)(F)F)cc1)C(=O)N[C@@H](CCN)C(=O)N[C@H](C(=O)N[C@@H](CCN)C(=O)N[C@H]1CCNC(=O)[C@H]([C@@H](C)O)NC(=O)[C@H](CCN)NC(=O)[C@H](CCN)NC(=O)[C@H](CC(C)C)NC(=O)[C@@H](Cc2ccccc2)NC(=O)[C@@H](CCN)NC1=O)[C@H](C)O` is ____.
< 10%

====

Can you tell me hemolysis at 1 h, 400 ug/ml for the items I'm about to list?
experiment: Hemolytic activity in human RBC at 400 ug/ml after 1 hr; type: toxicity, cell-based, Erythrocyte; conditions: red blood cells (erythrocytes), at 400 µg/mL, read-out: Activity
Positions of bridges follow the written chain, without caps; N, C: chain ends. Non-standard residues stand in square brackets, D forms with d. Residues, ends and D or L forms follow the SMILES beside them. *: point of attachment. Phe(2-F) = N[C@@H](Cc1ccccc1F)C(=O)O; Octanoyl = CCCCCCCC(=O)*; Dab = NCC[C@H](N)C(=O)O

Fill blank: measured hemolysis at 1 h, 400 ug/ml of the molecule `CCCCCCCC(=O)N[C@@H](CCN)C(=O)N[C@H](C(=O)N[C@@H](CCN)C(=O)N[C@H]1CCNC(=O)[C@H]([C@@H](C)O)NC(=O)[C@H](CCN)NC(=O)[C@H](CCN)NC(=O)[C@H](CCCCCC)NC(=O)[C@@H](Cc2ccccc2)NC(=O)[C@H](CCN)NC1=O)[C@@H](C)O` is ____.
< 10%

Fill blank: measured hemolysis at 1 h, 400 ug/ml of the molecule CCCCCCCC(=O)N[C@@H](CCN)C(=O)N[C@H](C(=O)N[C@@H](CCN)C(=O)N[C@H]1CCNC(=O)[C@H]([C@@H](C)O)NC(=O)[C@H](CCN)NC(=O)[C@H](CCN)NC(=O)[C@H](Cc2ccccc2F)NC(=O)[C@@H](CC(C)C)NC(=O)[C@H](CCN)NC1=O)[C@@H](C)O (Octanoyl-[Dab]T[Dab][Dab][Dab][dL][Phe(2-F)][Dab][Dab]T; lactam 4-C) is ____.
< 10%

====

tested on: Escherichia coli; assay: Antibacterial activity against Escherichia coli ATCC 25922 assessed as bacterial growth inhibition incubated for 20 hrs by broth microdilution method; assay type: functional
Positions of bridges follow the written chain, without caps; N, C: chain ends. Non-standard residues stand in square brackets, D forms with d. Residues, ends and D or L forms follow the SMILES beside them. *: point of attachment. d(hPhe) = N[C@H](CCc1ccccc1)C(=O)O; hPhe = N[C@@H](CCc1ccccc1)C(=O)O; Octanoyl = CCCCCCCC(=O)*; Dab = NCC[C@H](N)C(=O)O
measurement-name: MIC (µg/mL)
Write it as a number; the unit µg/mL goes unstated.

Fill blank: measured MIC of the molecule CCCCCCCC(=O)N[C@@H](CCN)C(=O)N[C@H](C(=O)N[C@@H](CCN)C(=O)N[C@H]1CCNC(=O)[C@H]([C@@H](C)O)NC(=O)[C@H](CCN)NC(=O)[C@H](CCN)NC(=O)[C@H](CC(C)C)NC(=O)[C@@H](CCc2ccccc2)NC(=O)[C@H](CCN)NC1=O)[C@@H](C)O (Octanoyl-[Dab]T[Dab][Dab][Dab][d(hPhe)]L[Dab][Dab]T; lactam 4-C) is ____.
0.25

Fill blank: measured MIC of the molecule CCCCCCCC(=O)N[C@@H](CCN)C(=O)N[C@H](C(=O)N[C@@H](CCN)C(=O)N[C@H]1CCNC(=O)[C@H]([C@@H](C)O)NC(=O)[C@H](CCN)NC(=O)[C@H](CCN)NC(=O)[C@H](CCc2ccccc2)NC(=O)[C@@H](CC(C)C)NC(=O)[C@H](CCN)NC1=O)[C@@H](C)O (Octanoyl-[Dab]T[Dab][Dab][Dab][dL][hPhe][Dab][Dab]T; lactam 4-C) is ____.
0.125

====

tested on: Escherichia coli; assay: Antimicrobial activity against […] Escherichia coli harboring mcr-1 assessed as bacterial growth inhibition incubated for 20 hrs by broth microdilution method; assay type: functional
Positions of bridges follow the written chain, without caps; N, C: chain ends. Non-standard residues stand in square brackets, D forms with d. Residues, ends and D or L forms follow the SMILES beside them. *: point of attachment. dPhe(4-CF3) = N[C@H](Cc1ccc(C(F)(F)F)cc1)C(=O)O; d(hPhe) = N[C@H](CCc1ccccc1)C(=O)O; Octanoyl = CCCCCCCC(=O)*; Dab = NCC[C@H](N)C(=O)O
measurement-name: MIC (µg/mL)
Write it as a number; the unit µg/mL goes unstated.

Fill blank: measured MIC of the molecule CCCCCCCC(=O)N[C@@H](CCN)C(=O)N[C@H](C(=O)N[C@@H](CCN)C(=O)N[C@H]1CCNC(=O)[C@H]([C@@H](C)O)NC(=O)[C@H](CCN)NC(=O)[C@H](CCN)NC(=O)[C@H](CC(C)C)NC(=O)[C@@H](Cc2ccc(C(F)(F)F)cc2)NC(=O)[C@H](CCN)NC1=O)[C@@H](C)O (Octanoyl-[Dab]T[Dab][Dab][Dab][dPhe(4-CF3)]L[Dab][Dab]T; lactam 4-C) is ____.
1

Fill blank: measured MIC of the molecule CCCCCCCC(=O)N[C@@H](CCN)C(=O)N[C@H](C(=O)N[C@@H](CCN)C(=O)N[C@H]1CCNC(=O)[C@H]([C@@H](C)O)NC(=O)[C@H](CCN)NC(=O)[C@H](CCN)NC(=O)[C@H](Cc2ccccc2)NC(=O)[C@@H](CCc2ccccc2)NC(=O)[C@H](CCN)NC1=O)[C@@H](C)O (Octanoyl-[Dab]T[Dab][Dab][Dab][d(hPhe)]F[Dab][Dab]T; lactam 4-C) is ____.
2

Fill blank: measured MIC of the molecule `CC(=O)N[C@H](Cc1ccc(C(F)(F)F)cc1)C(=O)N[C@@H](CCN)C(=O)N[C@H](C(=O)N[C@@H](CCN)C(=O)N[C@H]1CCNC(=O)[C@H]([C@@H](C)O)NC(=O)[C@H](CCN)NC(=O)[C@H](CCN)NC(=O)[C@H](CC(C)C)NC(=O)[C@@H](Cc2ccccc2)NC(=O)[C@@H](CCN)NC1=O)[C@H](C)O` is ____.
4
